System: ovariectomized ddY mouse
Experiment: Therapeutic effect in the ovariectomized osteoporetic mouse model (trabecular bone volume of the femur)
Type: in vivo, ddY mice
Details: Mus musculus, 672 h, 50 mg/kg/day oral gavage for 4 weeks from 4 weeks after ovariectomy, salts (methansulfonic acid or HCl), read-out: Changes on TBV (% changes vs vehicle control)

>  <structure>
Cc1nc(-c2ccc(OCC=CCOc3ccc(C(=N)NO)cc3)cc2)c(C(C)C)s1

>  <result-units>
%

>  <change in vivo at 50 mg/kg>
147

$$$$
>  <structure>
CCCCc1sc(N(C)Cc2cccnc2)nc1-c1ccc(OCCCCCOc2ccc(C(=N)NO)cc2)cc1

>  <result-units>
%

>  <change in vivo at 50 mg/kg>
91.7

$$$$
>  <structure>
CCCN(CCC)c1nc(-c2ccc(OCCCCCOc3ccc(C(=N)NO)cc3)cc2)c(CC)s1

>  <result-units>
%

>  <change in vivo at 50 mg/kg>
164

$$$$
>  <structure>
CC(C)c1sc(N2CCOCC2)nc1-c1ccc(OCCCCCOc2ccc(C(=N)NO)cc2)cc1

>  <result-units>
%

>  <change in vivo at 50 mg/kg>
186

$$$$
>  <structure>
Cc1nc(-c2ccc(OCCCCCNc3ccc(C(=N)NO)cc3)cc2)c(C(C)C)s1

>  <result-units>
%

>  <change in vivo at 50 mg/kg>
88.7

$$$$
>  <structure>
Cc1sc(-c2cccnc2)nc1-c1ccc(OCCCCCOc2ccc(C(=N)NO)cc2)cc1

>  <result-units>
%

>  <change in vivo at 50 mg/kg>
82

$$$$
>  <structure>
CCCCc1sc(N(C)C)nc1-c1ccc(OCCCCCOc2ccc(C(=N)NO)cc2)cc1

>  <result-units>
%

>  <change in vivo at 50 mg/kg>
71.5

$$$$
>  <structure>
N=C(NO)c1ccc(OCCCCCOc2ccc(-c3nc(N4CCOCC4)sc3CC3CCCC3)cc2)cc1

>  <result-units>
%

>  <change in vivo at 50 mg/kg>
56.6

$$$$
>  <structure>
Cc1nc(-c2ccc(OCc3ccc(COc4ccc(C(=N)NO)cc4)cc3)cc2)c(C(C)C)s1

>  <result-units>
%

>  <change in vivo at 50 mg/kg>
152

$$$$
>  <structure>
CCCNc1nc(-c2ccc(OCCCCCOc3ccc(C(=N)NO)cc3)cc2)c(CC2CCCC2)s1

>  <result-units>
%

>  <change in vivo at 50 mg/kg>
69.3

$$$$

Provenance of the data: patent US8178688B2
